experiment: Apparent oral clearance in Sprague-Dawley rat at 1 mg/kg, iv measured during 1 to 24 hrs by LC-MS method; assay type: ADME, organism-based; set-up: dose 1 mg/kg, route oral; details: in vivo
compounds and their reported CL/F
Measured attribute: CL/F

In [3]: df
Out[3]:
                                   compound      data_value
0  Cc1cc2c(c(C)c1Br)C=C(C(=O)O)C(C(F)(F)F)O2 (centres undefined)  1.98 mL/min/kg
1  Cc1cc(Cl)cc2c1OC(C(F)(F)F)C(C(=O)O)=C2 (centres undefined)  11.8 mL/min/kg
2  Cc1cc2c(c(C)c1Cl)C=C(C(=O)O)C(C(F)(F)F)O2 (centres undefined)  3.45 mL/min/kg
3  [2H]C([2H])([2H])c1cc(Cl)cc2c1OC(C(F)(F)F)C(C(=O)O)=C2 (centres undefined)   1.2 mL/min/kg
